- Tested on: 233499-124-R-J3-PDC spheroids with HUVEC/MSC, viability
- Experimental Protocol: Anticancer human tumor 233499-124-R-J3-PDC patient-derived colon adenocarcinoma cell line growth inhibition [PI3K]
- Condition Info: second compound 0.316 µM; first compound 0.1 µM; hits give low values
Parameter Measured: viability, T/C (%)
Reply numerically in %, unit not repeated.

Look over these answered cases.
1) CC(Cn1ccc(-c2ccc(C#N)c(Cl)c2)n1)NC(=O)c1cc(C(C)O)[nH]n1 (stereo unspecified) + CC(Nc1ccc2c(c1)OCCn1cc(N3C(=O)OCC3C(F)F)nc1-2)C(N)=O ... 63.7
2) CC(C)NCC(C(=O)N1CCN(c2ncnc3c2C(C)CC3O)CC1)c1ccc(Cl)cc1 (stereo unspecified) + Cc1nc(NC(=O)N2CCCC2C(N)=O)sc1-c1ccnc(C(C)(C)C(F)(F)F)c1 ... 82.3
3) CC(=O)c1c(C)c2cnc(Nc3ccc(N4CCNCC4)cn3)nc2n(C2CCCC2)c1=O + COc1c(OCCCN2CCOCC2)ccc2c3n(c(=NC(=O)c4cnc(N)nc4)nc12)CCN3 ... 31.2
4) CC(C)n1nc(-c2ccc3oc(N)nc3c2)c2c(N)ncnc21 + CC(Nc1ncnc2nc[nH]c12)c1cc2cccc(Cl)c2c(=O)n1-c1ccccc1 ... 81.7

Query viability, T/C for Cn1ncc(Cl)c1-c1cc(C(=O)NC(CN)Cc2cccc(F)c2)sc1Cl (stereo unspecified) + CC(Nc1ncnc2nc[nH]c12)c1cc2cccc(Cl)c2c(=O)n1-c1ccccc1
107

Query viability, T/C for C=CC(=O)N1CCN(c2nc(=O)n(-c3c(C)ccnc3C(C)C)c3nc(-c4c(O)cccc4F)c(F)cc23)C(C)C1 (stereo unspecified) + CC(Nc1ncnc2nc[nH]c12)c1cc2cccc(Cl)c2c(=O)n1-c1ccccc1
86.4

###

Documented viability, T/C across a set of compounds
- Test system: 233499-124-R-J3-PDC spheroids with HUVEC/MSC, viability
- Experimental Protocol: Anticancer human tumor 233499-124-R-J3-PDC cell line growth inhibition [PI3K];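 further: spheroids exposed to agents for seven days before readout; percent viability relative to DMSO vehicle control taken as 100%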
- Condition Info: compound 1 µM; hits give low values

Look over these answered cases.
1. CC1(C)CCC(Nc2ncc(C(F)(F)F)c(-c3c[nH]c4c(P(C)(C)=O)c(C#N)ccc34)n2)CN1 (configuration not stated) ... 26.5% [middle of 4 runs]
2. CC(Nc1ncnc2nc[nH]c12)c1cc2cccc(Cl)c2c(=O)n1-c1ccccc1 (configuration not stated) ... 103% [middle of 8 runs]
3. CC(C)NCC(C(=O)N1CCN(c2ncnc3c2C(C)CC3O)CC1)c1ccc(Cl)cc1 (configuration not stated) ... 102% [middle of 4 runs]

Query viability, T/C for C#Cc1c(F)ccc2cc(O)cc(-c3ncc4c(N5CC6CCC(C5)N6)nc(OCC56CCCN5CC(F)C6)nc4c3F)c12 (configuration not stated)
99.3% [middle of 4 runs]

Query viability, T/C for CC(Nc1ccc2c(c1)OCCn1cc(N3C(=O)OCC3C(F)F)nc1-2)C(N)=O (configuration not stated)
71.6% [middle of 8 runs]

Query viability, T/C for CNC(=O)c1ccc(N2C(=S)N(c3ccc(C#N)c(C(F)(F)F)c3)C(=O)C2(C)C)cc1F
93.1% [middle of 4 runs]

Query viability, T/C for C=CC(=O)N1CCN(c2nc(=O)n(-c3c(C)ccnc3C(C)C)c3nc(-c4c(O)cccc4F)c(F)cc23)C(C)C1 (configuration not stated)
113% [middle of 4 runs]

###

- System: 233499-124-R-J3-PDC spheroids with HUVEC/MSC, viability
- Experimental Protocol: Anticancer human tumor 233499-124-R-J3-PDC cell line growth inhibition [PI3K];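 further: spheroids exposed to agents for seven days before readout; percent viability relative to DMSO vehicle control taken as 100%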
- Condition Info: second compound 1 µM; first compound 0.316 µM; hits give low values
- Source text: Combinatorial screen of targeted agents with the PI3K inhibitors inavolisib, alpelisib, duvelisib, and copanlisib in multi-cell type tumor spheroids A high-throughput screen of multi-cell type tumor spheroids was designed to identify active combinations of targeted small molecules and PI3K pathway inhibitors. […] Compounds. […] If the clinical Cmax for an agent had not been determined, the highest concentration tested was 10 microM. […]
Documented viability, T/C across a set of compounds
Reply numerically in %, unit not repeated.

Look over these answered cases.
1) CC1(C)CCC(CN2CCN(c3ccc(C(=O)NS(=O)(=O)c4ccc(NCC5CCOCC5)c([N+](=O)[O-])c4)c(Oc4cnc5[nH]ccc5c4)c3)CC2)=C(c2ccc(Cl)cc2)C1 + Cc1nc(NC(=O)N2CCCC2C(N)=O)sc1-c1ccnc(C(C)(C)C(F)(F)F)c1 ... 80.8
2) CC(C)NCC(C(=O)N1CCN(c2ncnc3c2C(C)CC3O)CC1)c1ccc(Cl)cc1 (stereo not given) + Cc1nc(NC(=O)N2CCCC2C(N)=O)sc1-c1ccnc(C(C)(C)C(F)(F)F)c1 ... 60.7
3) CC(Cn1ccc(-c2ccc(C#N)c(Cl)c2)n1)NC(=O)c1cc(C(C)O)[nH]n1 (stereo not given) + CC(Nc1ccc2c(c1)OCCn1cc(N3C(=O)OCC3C(F)F)nc1-2)C(N)=O ... 47.4
4) CCN1CCN(Cc2ccc(Nc3ncc(F)c(-c4cc(F)c5nc(C)n(C(C)C)c5c4)n3)nc2)CC1 + CC(Nc1ccc2c(c1)OCCn1cc(N3C(=O)OCC3C(F)F)nc1-2)C(N)=O ... 42.6
5) CC1(C)CCC(CN2CCN(c3ccc(C(=O)NS(=O)(=O)c4ccc(NCC5CCOCC5)c([N+](=O)[O-])c4)c(Oc4cnc5[nH]ccc5c4)c3)CC2)=C(c2ccc(Cl)cc2)C1 + CC(Nc1ncnc2nc[nH]c12)c1cc2cccc(Cl)c2c(=O)n1-c1ccccc1 ... 103

Query viability, T/C for Cn1nccc1Nc1nccc(-c2ccn(C(CO)c3ccc(Cl)c(F)c3)c(=O)c2)n1 (stereo not given) + COc1c(OCCCN2CCOCC2)ccc2c3n(c(=NC(=O)c4cnc(N)nc4)nc12)CCN3
6.24

Query viability, T/C for CNC(=O)c1ccc(N2C(=S)N(c3ccc(C#N)c(C(F)(F)F)c3)C(=O)C2(C)C)cc1F + CC(Nc1ccc2c(c1)OCCn1cc(N3C(=O)OCC3C(F)F)nc1-2)C(N)=O
42.8

Query viability, T/C for CC1(C)CCC(CN2CCN(c3ccc(C(=O)NS(=O)(=O)c4ccc(NCC5CCOCC5)c([N+](=O)[O-])c4)c(Oc4cnc5[nH]ccc5c4)c3)CC2)=C(c2ccc(Cl)cc2)C1 + COc1c(OCCCN2CCOCC2)ccc2c3n(c(=NC(=O)c4cnc(N)nc4)nc12)CCN3
15.9

Query viability, T/C for C[C@@H](NC(=O)c1ncnc(N)c1Cl)c1ncc(C(=O)Nc2cc(C(F)(F)F)c(Cl)cn2)s1 + COc1c(OCCCN2CCOCC2)ccc2c3n(c(=NC(=O)c4cnc(N)nc4)nc12)CCN3
13.8

Query viability, T/C for Cn1nccc1Nc1nccc(-c2ccn(C(CO)c3ccc(Cl)c(F)c3)c(=O)c2)n1 (stereo not given) + CC(Nc1ccc2c(c1)OCCn1cc(N3C(=O)OCC3C(F)F)nc1-2)C(N)=O
43.5

###

- Tested on: 233499-124-R-J3-PDC spheroids with HUVEC/MSC, viability
- Experimental Protocol: Anticancer human tumor 233499-124-R-J3-PDC cell line growth inhibition [PI3K];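 further: spheroids exposed to agents for seven days before readout; percent viability relative to DMSO vehicle control taken as 100%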
- Condition Info: second compound 1 µM; first compound 0.316 µM; hits give low values
Strictly below 80% in viability, T/C: 1.0. Otherwise: 0.0.

1. CNC(=O)c1ccc(N2C(=S)N(c3ccc(C#N)c(C(F)(F)F)c3)C(=O)C2(C)C)cc1F + CC(Nc1ncnc2nc[nH]c12)c1cc2cccc(Cl)c2c(=O)n1-c1ccccc1 ... 0.0
2. CC(C)NCC(C(=O)N1CCN(c2ncnc3c2C(C)CC3O)CC1)c1ccc(Cl)cc1 (stereo not given) + CC(Nc1ncnc2nc[nH]c12)c1cc2cccc(Cl)c2c(=O)n1-c1ccccc1 ... 0.0
3. CC1(C)CCC(Nc2ncc(C(F)(F)F)c(-c3c[nH]c4c(P(C)(C)=O)c(C#N)ccc34)n2)CN1 (stereo not given) + Cc1nc(NC(=O)N2CCCC2C(N)=O)sc1-c1ccnc(C(C)(C)C(F)(F)F)c1 ... 1.0

Here's the next entry for you.
For this molecule, is viability, T/C lower than 80%? CC1(C)CCC(Nc2ncc(C(F)(F)F)c(-c3c[nH]c4c(P(C)(C)=O)c(C#N)ccc34)n2)CN1 (stereo not given) + CC(Nc1ncnc2nc[nH]c12)c1cc2cccc(Cl)c2c(=O)n1-c1ccccc1
1.0

###

- Test system: 233499-124-R-J3-PDC spheroids with HUVEC/MSC, viability
- Experimental Protocol: Anticancer human tumor 233499-124-R-J3-PDC cell line growth inhibition [PI3K];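 further: spheroids exposed to agents for seven days before readout; percent viability relative to DMSO vehicle control taken as 100%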
- Condition Info: second compound 0.01 µM; first compound 3.16 µM; hits give low values
Documented viability, T/C across a set of compounds

Look over these answered cases.
1. C=CC(=O)N1CCN(c2nc(=O)n(-c3c(C)ccnc3C(C)C)c3nc(-c4c(O)cccc4F)c(F)cc23)C(C)C1 (stereo not drawn) + COc1c(OCCCN2CCOCC2)ccc2c3n(c(=NC(=O)c4cnc(N)nc4)nc12)CCN3 ... 84.6%
2. C#Cc1c(F)ccc2cc(O)cc(-c3ncc4c(N5CC6CCC(C5)N6)nc(OCC56CCCN5CC(F)C6)nc4c3F)c12 (stereo not drawn) + COc1c(OCCCN2CCOCC2)ccc2c3n(c(=NC(=O)c4cnc(N)nc4)nc12)CCN3 ... 81.2%

Proceed to the following item.
Query viability, T/C for C#Cc1c(F)ccc2cc(O)cc(-c3ncc4c(N5CC6CCC(C5)N6)nc(OCC56CCCN5CC(F)C6)nc4c3F)c12 (stereo not drawn) + CC(Nc1ccc2c(c1)OCCn1cc(N3C(=O)OCC3C(F)F)nc1-2)C(N)=O
46.5%
